property.measured: IC50 (nM)
Report as a plain number; the unit nM is understood.

query: Give the observed IC50 of C#CCOc1ccc(Nc2ncc(Cl)c(Nc3ccccc3NC(=O)C=C)n2)c(OC)c1 for KDR (VEGFR2) (Homo sapiens, UniProt P35968).
result: 631

====

Target sequence: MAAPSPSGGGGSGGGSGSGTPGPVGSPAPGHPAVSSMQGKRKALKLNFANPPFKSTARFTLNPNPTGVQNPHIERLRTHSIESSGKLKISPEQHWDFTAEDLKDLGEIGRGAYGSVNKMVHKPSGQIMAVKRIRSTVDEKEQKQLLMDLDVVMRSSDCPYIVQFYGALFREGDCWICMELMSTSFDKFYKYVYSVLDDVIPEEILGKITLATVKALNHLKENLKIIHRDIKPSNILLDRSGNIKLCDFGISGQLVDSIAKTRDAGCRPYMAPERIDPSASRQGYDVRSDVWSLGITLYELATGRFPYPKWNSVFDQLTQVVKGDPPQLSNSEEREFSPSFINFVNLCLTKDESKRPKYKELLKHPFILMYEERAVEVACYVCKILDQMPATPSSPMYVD
property.measured: pIC50
pIC50 is defined as minus the log10 of a concentration measured in mol/L.

query: Complete the entry with pIC50 for C#CCOc1ccc(Nc2ncc(Cl)c(Nc3ccccc3NC(=O)C=C)n2)c(OC)c1
result: 8.40
